Reference source for all entries: patent US20250154169A1

Give measured AC50 for each item. Keep answers brief.
- Test system: HTT mRNA
- assay.method.text: Splicing RT-qPCR assay, HTT canonical (CJ) and alternative (AJ) junction mRNA
- Type: cell-based, human
- measurement.setup: Homo sapiens, A673 or K562 cells, 24 hours compound treatment, read-out: HTT AJ (AC50, increase in alternative junction mRNA)

Observe how each entry below is paired with its result.
# compound, val
rows = [
    ("Cc1cn2cc(NC(=O)c3ccc(N4CC[C@H](NC5CC5)C4)c4cn(C)nc34)cc(F)c2n1", "1 to 10 µM"),
    ("CCNC1CCN(c2ccc(C(=O)Nc3cc(F)c4nc(C)cn4c3)c3nn(CCOC)cc23)C1 (stereo not shown)", "1 to 10 µM"),
    ("CCN(CC)C1(C)CCN(c2ccc(C(=O)Nc3cc(F)c4nc(C)cn4c3)c3nn(CC)cc23)CC1", "> 10 µM"),
]

// switching to the query compound
input: Sample C=Cn1cc2c(N3CCC(NC)CC3)ccc(C(=O)Nc3cc(F)c4nc(C)cn4c3)c2n1 — what was its AC50?
output: 0.1 to 1 µM
